ASSAY_READOUT: melting point

Prompt: GET /values?readout=melting point&item= CC(C)C(=O)N(O)C(C)c1cc(C(C)(C)C)c(O)c(C(C)(C)C)c1 (stereo not given)
Response: 147 to 148 °C

Prompt: GET /values?readout=melting point&item= `CN(C)C=Nc1nc(Cl)c(N=CN(C)C)c(Cl)n1`
Response: 116 to 119 °C

Prompt: GET /values?readout=melting point&item= `CCOc1cc(F)ccc1C(=O)c1ccc(OC)c(Cl)c1Cl`
Response: 107 to 109 °C

Prompt: GET /values?readout=melting point&item= CCC1c2cc3c(cc2C(C=Cc2ccc(NC(C)=O)cc2)=NN(C(C)=O)C1C)OCO3 (stereo not given)
Response: 137 to 140 °C

Prompt: GET /values?readout=melting point&item= `CCOC(=O)c1cc2c(OCc3ccccc3)ccc3c(CC)c(-c4ccc(OCc5ccccc5)cc4)c1n23`
Response: 114 to 116 °C

Prompt: GET /values?readout=melting point&item= `COc1cc(CN2CCc3c(sc(N)c3C(=O)c3ccc4ccccc4c3)C2)cc(OC)c1OC`
Response: 127 to 129 °C

Prompt: GET /values?readout=melting point&item= `Cc1ccc(N2C(=O)c3ccccc3C2=O)c(Cl)c1Cl`
Response: 109 °C

Prompt: GET /values?readout=melting point&item= `CN(O)C(=O)Nc1ccc(Cl)c(C(F)(F)F)c1`
Response: 114 to 115 °C

Prompt: GET /values?readout=melting point&item= `CCOC(=O)COn1ccncc1=O`
Response: 98 to 100 °C

Prompt: GET /values?readout=melting point&item= `O=[N+]([O-])c1ccc2c(c1)C=C(N1CCN(Cc3ccc4c(c3)OCO4)CC1)c1ccccc1S2`
Response: 188 to 190 °C

* * *

Hi there, I'd appreciate the recorded melting point for every entry that follows.

Prompt: GET /values?readout=melting point&item= `O=C(Nc1ccc(C2CCCCC2)cc1)c1ncccc1O`
Response: 91 to 93 °C

Prompt: GET /values?readout=melting point&item= COc1nc(C)cnc1NS(=O)(=O)c1cccnc1-c1ccc(OC(C)C(=O)O)cc1 (stereo not drawn)
Response: 149 to 151 °C

Prompt: GET /values?readout=melting point&item= COc1cc(C(O)c2cnc3ccccc3c2)ccc1OCc1ccccc1 (stereo not drawn)
Response: 124 to 125 °C

Prompt: GET /values?readout=melting point&item= `COC(=O)c1sc(S(C)(=O)=O)cc1OCc1ccccc1`
Response: 125 to 126 °C

Prompt: GET /values?readout=melting point&item= `Nc1ccc(-c2noc(-c3cnn4c(C(F)(F)F)cc(-c5ccc(Cl)c(Cl)c5)nc34)n2)cn1`
Response: 289 °C

Prompt: GET /values?readout=melting point&item= `CCOC(=O)COc1ccc(-c2nn(-c3ccccc3)c3ncccc23)cc1`
Response: 118 to 120 °C

Prompt: GET /values?readout=melting point&item= `COc1ccc(C2=NN(c3ccc(OCC(N)=O)cc3)C(=O)C(C)(C)C2)cc1OC`
Response: 184 to 187 °C

Prompt: GET /values?readout=melting point&item= `Cc1cccc(C)c1C1CCN(Cc2cc3ccccc3[nH]2)CC1`
Response: 128 to 130 °C

Prompt: GET /values?readout=melting point&item= `O=C(c1ccc(F)cc1)c1ccc(C(=O)c2ccc(F)cc2)cc1`
Response: 218 to 220 °C

Prompt: GET /values?readout=melting point&item= `Cc1cc(-c2ccc(S(C)(=O)=O)cc2)n(-c2ccc(F)cc2)c1`
Response: 127 to 130 °C

Prompt: GET /values?readout=melting point&item= `CCOC(=O)Cn1cccc1-c1nc(-c2ccc(OC)cc2)c(-c2ccc(OC)cc2)s1`
Response: 132 to 136 °C

Prompt: GET /values?readout=melting point&item= `COc1cc(C(=O)NS(=O)(=O)c2ccccc2C)ccc1Cc1cn(C(=O)NC(c2ccccc2)c2ccccc2)c2ccc(NC(=O)OC3CCCC3)cc12`
Response: 253 to 254 °C

Prompt: GET /values?readout=melting point&item= CCn1c(=O)n(CCN2CC[C@H](NC(=O)c3cc(Cl)c(N)c4c3OCC4)[C@H](OC)C2)c2ccccc21 (relative stereo)
Response: 174 °C

Prompt: GET /values?readout=melting point&item= Cc1ccc(S(=O)(=O)OCC2COc3ccc4nccnc4c3O2)cc1 (stereo not drawn)
Response: 124 to 127 °C

Prompt: GET /values?readout=melting point&item= COc1cccc(CNC(=O)c2ccc(COC3CCCCO3)cc2)c1 (stereo not drawn)
Response: 66 to 68.5 °C

Prompt: GET /values?readout=melting point&item= `Fc1ccc(Nc2ncnc3cnc(N4CCC(N5CCNCC5)CC4)nc23)cc1Cl`
Response: 178 to 180 °C

Prompt: GET /values?readout=melting point&item= COc1ccc(S(=O)(=O)N(Cc2ccccc2)C(Cc2nnn(C)n2)C(=O)NO)cc1 (stereo not drawn)
Response: 72 to 75 °C

Prompt: GET /values?readout=melting point&item= CCCCOc1c2c(nc3c1cnn3CC)C(O)c1ccccc1CC2 (stereo not drawn)
Response: 163 to 165 °C

* * *

ASSAY_READOUT: melting point

Prompt: GET /values?readout=melting point&item= `CC(=O)Oc1c(C)cc(C=CC(=O)Nc2cnc3c(C)cc(C)cc3c2-c2ccccc2Cl)cc1C`
Response: 207 to 208 °C

Prompt: GET /values?readout=melting point&item= `COc1cccc(-c2nn(Cc3ccccc3)c3ncnc(Cl)c23)c1`
Response: 99 to 101 °C

Prompt: GET /values?readout=melting point&item= `CCOC(=O)C=Cc1ccc(N(CCOC)C(=O)c2ccncc2)cc1`
Response: 98.4 to 102 °C

Prompt: GET /values?readout=melting point&item= CC1NC(=O)NN=C1c1ccc(N)c(Br)c1 (centres undefined)
Response: 222 to 224 °C

Prompt: GET /values?readout=melting point&item= `CCOC(=O)C(NC=O)=C(c1ccc(F)cc1)c1ccc(F)cc1`
Response: 174 to 176 °C

Prompt: GET /values?readout=melting point&item= `CC(C)(C)OCOc1cc(NC(=O)NC(=O)c2ccc(C(N)=S)cc2)ccc1OCC(=O)OC(C)(C)C`
Response: 198 to 199 °C

Prompt: GET /values?readout=melting point&item= `CCOCc1nc2nc(O)cnc2c(=O)[nH]1`
Response: 255 to 256 °C

Prompt: GET /values?readout=melting point&item= `O=C(N[C@@H](Cc1ccc(NC(=O)c2c(Cl)cccc2Cl)cc1)C(=O)O)OCC1c2ccccc2-c2ccccc21`
Response: 230 to 234 °C

Prompt: GET /values?readout=melting point&item= `CC(C)CN1CCC(CCC(=O)c2cc(Cl)c(N)[nH]c2=O)CC1`
Response: 175 °C

* * *

Hi there, I'd appreciate the recorded melting point for every entry that follows.

Prompt: GET /values?readout=melting point&item= `O=C(CSc1ccccc1)c1ccccc1`
Response: 51 to 52 °C

Prompt: GET /values?readout=melting point&item= `O=c1oc(-c2ccccc2)cc(O)c1SCCc1ccccc1`
Response: 121 to 124 °C

Prompt: GET /values?readout=melting point&item= `CC(C)CN(C)C1=NS(=O)(=O)c2cccc(Cl)c21`
Response: 160 to 162 °C

Prompt: GET /values?readout=melting point&item= Cc1cc(SC(C)c2ccc3nc(-c4ccc(C(F)(F)F)cc4)sc3c2)ccc1OCC(=O)O (centres undefined)
Response: 170 to 173 °C

Prompt: GET /values?readout=melting point&item= `CCOC(=O)c1c(N2CCN(C(=O)c3cccs3)CC2)c2c(C)csc2n(Cc2ccccc2)c1=O`
Response: 195 °C

Prompt: GET /values?readout=melting point&item= `O=C1c2ccccc2C(=O)c2c1oc1c2ccc2ccc(O)cc21`
Response: 332 °C

Prompt: GET /values?readout=melting point&item= `CC(=O)NCc1ccc(CN2CCN(c3cccnc3)CC2)cc1`
Response: 139 to 140 °C

Prompt: GET /values?readout=melting point&item= `CC1(C)OC(=O)Nc2ccc(-c3ccc(F)c(Cl)c3)cc21`
Response: 211 to 212 °C

Prompt: GET /values?readout=melting point&item= `COC(=O)c1cc(C(=O)c2c(C)c(N(C)C(=O)c3cccc(OC)c3)c3ccccn23)ccc1[N+](=O)[O-]`
Response: 158 °C

* * *

Hi there, I'd appreciate the recorded melting point for every entry that follows.

Prompt: GET /values?readout=melting point&item= COC(=O)C(C)c1ccc2c(c1)C(=O)Cc1cccnc1S2 (stereo unspecified)
Response: 98 to 99.5 °C

Prompt: GET /values?readout=melting point&item= `CN1CCN(CC/C=C/c2ccc3ncc(C#N)c(Nc4ccc(Cl)cc4Cl)c3c2)CC1`
Response: 97 to 98 °C

Prompt: GET /values?readout=melting point&item= CC(=O)OCC1c2ccccc2-c2c1c1ccccc1c1ccccc21 (stereo unspecified)
Response: 135 to 136 °C

Prompt: GET /values?readout=melting point&item= `O=C1CCC(c2ccc(O)cc2)CC1`
Response: 165 to 166 °C

Prompt: GET /values?readout=melting point&item= `C=CCOc1cc(C(=O)O)cc(C(=O)N(C)C)c1`
Response: 93 to 95 °C

Prompt: GET /values?readout=melting point&item= COc1cc(F)ccc1CCN1c2nc(-c3ccncn3)cc(=O)n2CCC1C (stereo unspecified)
Response: 148 to 150 °C
